Molecular target: Survival motor neuron protein (Homo sapiens) (UniProt Q16637)
Sequence (Q16637 whole entry): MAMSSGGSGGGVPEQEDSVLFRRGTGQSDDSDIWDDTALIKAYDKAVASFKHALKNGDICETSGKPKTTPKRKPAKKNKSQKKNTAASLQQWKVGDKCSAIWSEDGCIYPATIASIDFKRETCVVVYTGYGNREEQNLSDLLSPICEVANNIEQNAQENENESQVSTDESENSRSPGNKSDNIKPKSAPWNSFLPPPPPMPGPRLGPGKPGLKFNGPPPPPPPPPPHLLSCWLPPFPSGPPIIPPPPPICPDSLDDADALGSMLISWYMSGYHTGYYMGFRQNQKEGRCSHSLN
Experiment: Activation of SMN expressed in HEK293 cells assessed as rate of induction by SMN2-promotor driven luciferase reporter gene assay relative to basal level
Type: cell-based
Parameters: concentration or dose not given beside the values
assay-metric: Activity (%)
Numbers only here, please. The scale is %.

Input: Quick check: Activity of "CN(C)c1ccc(-c2csc(N3CCC(C(N)=O)CC3)n2)cc1" ?
Output: 64

Input: Requested read-out: Activity. Entry: "Cc1ccc(-c2nnc(N3CCC(C(N)=O)CC3)s2)cc1"
Output: 54

Input: Requested read-out: Activity. Entry: "NC(=O)C1CCN(c2ncc(-c3cccc(N4CCCCC4)c3)s2)CC1"
Output: 565

Input: Given "NC(=O)C1CCN(c2ncc(-c3ccc(Br)cc3)s2)CC1" , state its recorded Activity.
Output: 599

Input: Quick one: Activity of "NC(=O)C1CCN(c2nc(-c3ccc4ccccc4c3)cs2)CC1" ?
Output: 162

Further cases:
Input: Given "NC(=O)C1CCN(c2nc(-c3cccc(Cl)c3)cs2)CC1" , state its recorded Activity.
Output: 53

====

Biological target: Survival motor neuron protein (Homo sapiens) (UniProt Q16637)
Assay: Activation of SMN expressed in HEK293 cells assessed as concentration required to reach 50% of maximum luciferase signal by SMN2-promotor driven luciferase reporter gene assay
Assay type: cell-based
Calls of active or inactive are those of the source. The calls are words filed in the database; no cut-off is given here.
assay-metric: Activity

Examples with their reported Activity follow.
Input: Which Activity is listed for "NC(=O)C1CCN(c2nc(-c3cc4ccccc4o3)cs2)CC1" ?
Output: 15.4 µM

Input: For "NC(=O)C1CCN(c2nc(-c3ccc(C(F)(F)F)cc3)cs2)CC1" , what is its reported Activity?
Output: 2.44 µM

Input: For the molecule "CC(C)COc1ccc(-c2csc(N3CCC(C(N)=O)CC3)n2)cc1" , what Activity is on record?
Output: 3.07 µM

Input: Consider the molecule "NC(=O)C1CCN(c2nc(-c3ccc([N+](=O)[O-])cc3)cs2)CC1" and give its measured Activity.
Output: 15.4 µM

Input: Data request, read-out Activity, for "Brc1ccc(-c2csc(N3CCNCC3)n2)cc1"
Output: 24.4 µM

Input: Name the recorded Activity for "NC(=O)C1CCN(c2nc(-c3ccc(Oc4ccccc4)cc3)cs2)CC1" .
Output: 4.87 µM

Input: Fill in: Activity of "NC(=O)C1CCN(c2ncc(-c3cccc(N4CCCCC4)c3)s2)CC1" is ___
Output: 1.54 µM

Input: // returns reported Activity for input "NC(=O)C1CCN(c2nc(-c3ccc(N)cc3)cs2)CC1"
Output: inactive

---
Input: State the recorded Activity for this entry: "NC(=O)C1CCN(c2nc(-c3ccc4c(c3)OCC4)cs2)CC1"
Output: 12.2 µM

Input: Item "COc1ccc(-c2csc(N3CCC(C(N)=O)CC3)n2)cc1" has what recorded Activity?
Output: 7.72 µM

Input: Which Activity value is on record for "NC(=O)C1CCN(c2nc(-c3cccc(Cl)c3)cs2)CC1" ?
Output: 12.2 µM

Input: Query: Activity; subject: "Cc1cnc(N2CCC(C(N)=O)CC2)nc1-c1cccc(N(C)C)c1"
Output: inactive

Input: Look at this molecule and give its reported Activity. "NC(=O)C1CCN(c2nc(-c3ccccc3-c3ccccc3)cs2)CC1"
Output: inactive

Input: Tell me the measured Activity of "NC(=O)C1CCN(c2nc(-c3ccc(-c4ccccc4)cc3)cs2)CC1" , please.
Output: 24.4 µM

Input: # get_value(readout='Activity', item= "CC(=O)Nc1ccc(-c2csc(N3CCC(C(N)=O)CC3)n2)cc1" )
Output: inactive

Input: Please give the measured Activity for this molecule: "N#CC1CCN(c2nc(-c3ccc(Br)cc3)cs2)CC1"
Output: 30.7 µM

====

# Activity annotations
Target: Survival motor neuron protein (Homo sapiens) (UniProt Q16637)
Assay: Activation of SMN expressed in HEK293 cells assessed as rate of induction by SMN2-promotor driven luciferase reporter gene assay relative to basal level
Type: cell-based
Design: concentration or dose not given beside the values
Enter your answer as a number in %; do not include the unit.

These solved cases illustrate the format of a correct answer.
Input: Record request: Activity value, item "NC(=O)C1CCN(c2nc(-c3cccc(Br)c3)cs2)CC1"
Output: 57

Input: Param item = "NC(=O)C1CCN(c2nccc(-c3ccc4c(c3)OCCCO4)n2)CC1" ; retrieve measured Activity.
Output: 234

Input: Bench note: what Activity did "CCOc1ccc(-c2csc(N3CCC(C(N)=O)CC3)n2)cc1" show?
Output: 212

More entries:
Input: Reported Activity, compound "NC(=O)C1CCN(c2nc(-c3ccc(Oc4ccccc4)cc3)cs2)CC1" : ____
Output: 240

Input: Please look up its Activity: "NC(=O)C1CCN(c2ncnc(-c3ccc4c(c3)OCCCO4)n2)CC1"
Output: 186

Input: # lookup: Activity of "O=C(C1CCN(c2nc(-c3ccc(Br)cc3)cs2)CC1)N1CCOCC1"
Output: 77

Input: Query: Activity; subject: "NC(=O)C1CCN(c2nc(-c3ccc(-c4ccccc4)cc3)cs2)CC1"
Output: 58

Input: Any idea what Activity was measured for "NC(=O)C1CCN(c2nc(-c3cccc([N+](=O)[O-])c3)cs2)CC1" ?
Output: 20

Input: Sample "CNC(=O)C1CCN(c2nc(-c3ccc(Br)cc3)cs2)CC1" — what was its Activity?
Output: 101

Input: // returns reported Activity for input "NC(=O)C1CCN(c2ncc(-c3ccc4c(c3)OCCCO4)s2)CC1"
Output: 370

====

Experiment: Plasma concentration in Swiss albino mouse at 30 mg/kg, po after 0.083 hrs
Format: ADME, organism-based
Set-up: dose 30 mg/kg, route oral
assay-metric: concentration at 0.083 h (µM)
Express the result in µM but write the number alone.

Input: Could you share which concentration at 0.083 h value was measured for "CC(C)Oc1cccc(-c2cnc(N3CCC(C(N)=O)CC3)s2)c1" ?
Output: 3.72

Continue with the next molecule.
Input: Can you look up the measured concentration at 0.083 h of "O=C(O)C1CCN(c2ncc(-c3ccc4c(c3)OCCCO4)s2)CC1" for me?
Output: 44.4

====

Molecular target: Survival motor neuron protein (Homo sapiens) (UniProt Q16637)
Assay: Activation of SMN expressed in HEK293 cells assessed as concentration required to reach 50% of maximum luciferase signal by SMN2-promotor driven luciferase reporter gene assay
Assay type: cell-based
Activity calls are given as the source filed them. The rule behind the calls is not given here.
assay-metric: Activity

Input: Which Activity value is on record for "CC(C)(C)OC(=O)NC1CCN(c2nc(-c3ccc(Br)cc3)cs2)CC1" ?
Output: inactive

Input: Entry "CC(=O)C1CCN(c2ncc(-c3ccc4c(c3)OCCCO4)s2)CC1" : reported Activity = ?
Output: inactive

Input: Any idea what its Activity is? The compound is "NC(=O)C1CCN(c2nc(-c3ccc4occc(=O)c4c3)cs2)CC1"
Output: 15.4 µM

Input: Requested read-out: Activity. Entry: "CCOC(=O)C1CCN(c2nc(-c3ccc(Br)cc3)cs2)CC1"
Output: 7.72 µM

Input: Quick check: Activity of "CC(=O)N1CCN(c2nc(-c3ccc(Br)cc3)cs2)CC1" ?
Output: 3.07 µM

Next:
Input: Any idea what Activity was measured for "NC1CCN(c2nc(-c3ccc(Br)cc3)cs2)CC1" ?
Output: 2.44 µM

Input: Given "CN(C)c1cccc(-c2nc(N3CCC(C(N)=O)CC3)ncc2F)c1" , state its recorded Activity.
Output: 0.387 µM

Input: Data request, read-out Activity, for "NC(=O)C1CCN(c2nc(-c3ccc(Br)cc3)cs2)CC1"
Output: 1.22 µM

Input: Need Activity of "NC(=O)C1CCN(c2nc(-c3ccc4c(c3)OCCO4)cs2)CC1" , thanks.
Output: 0.77 µM

Input: What measured Activity goes with "CNC(=O)C1CCN(c2nc(-c3ccc(Br)cc3)cs2)CC1" ?
Output: 7.72 µM

Input: # query: Activity of entry "O=C(O)C1CCN(c2nc(-c3ccc(Br)cc3)cs2)CC1"
Output: 4.87 µM

====

Target: Luciferin 4-monooxygenase (Luciola lateralis, UniProt Q01158)
Sequence (Q01158 whole entry): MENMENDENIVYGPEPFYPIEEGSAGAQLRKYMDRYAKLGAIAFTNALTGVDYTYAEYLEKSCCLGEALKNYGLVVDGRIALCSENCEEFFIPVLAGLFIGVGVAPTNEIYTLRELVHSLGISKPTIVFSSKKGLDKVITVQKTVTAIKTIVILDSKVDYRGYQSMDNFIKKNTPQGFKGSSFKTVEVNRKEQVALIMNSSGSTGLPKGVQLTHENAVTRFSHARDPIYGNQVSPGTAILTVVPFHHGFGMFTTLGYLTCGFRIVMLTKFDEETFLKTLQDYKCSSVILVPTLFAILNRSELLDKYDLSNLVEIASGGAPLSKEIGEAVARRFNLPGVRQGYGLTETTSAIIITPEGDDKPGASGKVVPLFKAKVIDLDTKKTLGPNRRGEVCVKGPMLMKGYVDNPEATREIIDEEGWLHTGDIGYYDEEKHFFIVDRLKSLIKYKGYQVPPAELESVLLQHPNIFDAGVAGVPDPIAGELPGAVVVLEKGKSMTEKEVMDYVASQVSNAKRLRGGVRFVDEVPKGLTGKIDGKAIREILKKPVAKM
Test: Inhibition of fire fly luciferase
Parameters: species or system Aquatica lateralis
Settings: read-out: IC50
assay-metric: pIC50
pIC50 field: float, defined as -log10 of concentration (mol/L).

Input: // query pIC50 value for entry "NC(=O)C1CCN(c2ncc(-c3ccc4c(c3)OCCCO4)s2)CC1"
Output: 5.49

Input: Value lookup for pIC50; key = "O=C(Nc1ccccc1)C1CCN(c2ncc(-c3ccc4c(c3)OCCCO4)s2)CC1"
Output: 5.40

Input: For the compound "CC(C)Oc1cccc(-c2ccnc(N3CCC(C(N)=O)CC3)n2)c1" , what pIC50 is on record?
Output: 5.00

Input: Tell me the measured pIC50 of "O=C(O)C1CCN(c2ncc(-c3ccc4c(c3)OCCCO4)s2)CC1" , please.
Output: 8.30

Input: Which pIC50 is reported for this compound? "Cc1ccc(-c2cnc(N3CCC(C(N)=O)CC3)s2)cc1"
Output: 5.19

# ---- query compound ----
Input: For "NC(=O)C1CCN(c2nnc(-c3ccc4c(c3)OCCCO4)s2)CC1" , what is its reported pIC50?
Output: 5.49
